Numbers sourced from patent US5478939A.

Biological target: muscarinic cholinergic receptor (high affinity agonist conformation)
Assay: [3H]-cis-Methyldioxolane (3H-CD) Binding Assay (High Affinity), cerebral cortex
Settings: 3H-CD 1.0 nM, rat cerebral cortex, 25° C., 120 minutes, pH 7.4; read-out: Ki, ^3 H-CD (ctx)
Counter-ions that a name gives are not always drawn.
MEASURE NAME: pKi
Convention used: pKi is expressed as -log10 of the molar concentration.

Worked examples, 3 compounds total:
COMPOUND	SYSTEM TESTED	pKi
Cc1nsc(N2C[C@H]3C[C@@H]2CN3)n1	muscarinic cholinergic receptor (high affinity agonist conformation)	6.05
Cc1nsc(N2C[C@@H]3C[C@H]2CN3C)n1	muscarinic cholinergic receptor (high affinity agonist conformation)	6.70
c1cnc(N2C[C@@H]3C[C@H]2CN3)cn1 [Example 12, hydrochloride]	muscarinic cholinergic receptor (high affinity agonist conformation)	5.89

The recorded pKi for CN1C[C@@H]2C[C@H]1CN2c1sccc1[N+](=O)[O-] is 5.01

In plain terms, Cc1noc(N2C[C@@H]3C[C@H]2CN3C(=O)OC(C)(C)C)n1 has a documented pKi of 4.36

---

Let's look at some molecules and their measured log10 of Ki.
Target: muscarinic cholinergic receptor
Assay: [3H] Quinuclidinyl Benzilate (QNB) Binding Assay, cerebral cortex
Conditions: 3H-QNB 0.25 nM, rat cerebral cortex, 25° C., 120 minutes, pH 7.4; read-out: Ki, ^3 H-QNB (ctx)
Counter-ions that a name gives are not always drawn.
In plain terms, each number is the log10 of measured Ki in µM.

MOLECULE	log10 of Ki
Cc1cnc(C)c(N2C[C@@H]3C[C@H]2CN3C)n1	0.08

The molecule Cc1noc(N2C[C@H]3C[C@@H]2CN3)n1 , tested on muscarinic cholinergic receptor, showed log10 of Ki of 1.67

Let me check: CN1C[C@@H]2C[C@H]1CN2c1cncc(Cl)n1 , system muscarinic cholinergic receptor, measured log10 of Ki is 0.65

Let me check: c1cnc(N2C[C@H]3C[C@@H]2CN3)cn1 [Example 11, hydrochloride] , system muscarinic cholinergic receptor, measured log10 of Ki is 0.49

Value (log10 of Ki, muscarinic cholinergic receptor) for record Cc1nsc(N2C[C@@H]3C[C@H]2CN3C)n1 = -0.30

Result for CN1C[C@@H]2C[C@H]1CN2c1cnccn1 , tested on muscarinic cholinergic receptor, log10 of Ki: 0.74

Value (log10 of Ki, muscarinic cholinergic receptor) for record c1cnc(N2C[C@@H]3C[C@H]2CN3)cn1 [Example 12, hydrochloride] = 1.06

---

Quick reference: Ki of the listed items.
Target: muscarinic cholinergic receptor
Assay: [3H] Quinuclidinyl Benzilate (QNB) Binding Assay, cerebral cortex
Settings: 3H-QNB 0.25 nM, rat cerebral cortex, 25° C., 120 minutes, pH 7.4; read-out: Ki, ^3 H-QNB (ctx)

Answered cases to consult:
MOLECULE	OBSERVED
c1nsc(N2C[C@@H]3C[C@H]2CN3)n1 [Example 15]	> 1000 µM
Cc1nsc(N2C[C@H]3C[C@@H]2CN3C(=O)OC(C)(C)C)n1 [Example 5]	> 1000 µM

Switching to the query record.
Tested on muscarinic cholinergic receptor: Cc1noc(N2C[C@@H]3C[C@H]2CN3)n1 [Example 17] . Observed Ki: > 1000 µM

---

Target: muscarinic cholinergic receptor (high affinity agonist conformation)
Assay: [3H]-cis-Methyldioxolane (3H-CD) Binding Assay (High Affinity), cerebral cortex
Details: 3H-CD 1.0 nM, rat cerebral cortex, 25° C., 120 minutes, pH 7.4; read-out: Ki, ^3 H-CD (ctx)
MEASURE NAME: Ki (µM)
Quick note: give the figure in µM, leave out the unit.

Some solved entries appear below for comparison.
COMPOUND	UNIT OF MEASURE	Ki
Cc1noc(N2C[C@H]3C[C@@H]2CN3C(=O)OC(C)(C)C)n1 [Example 9]	µM	18.2
Cc1cnc(C)c(N2C[C@@H]3C[C@H]2CN3C)n1 [Example 22]	µM	0.7
Cc1noc(N2C[C@H]3C[C@@H]2CN3)n1 [Example 18]	µM	0.4

// field: Ki; key: Cc1nsc(N2C[C@H]3C[C@@H]2CN3C(=O)OC(C)(C)C)n1 [Example 5] ; value = 59
